Task for the reader: assign each of the following compounds its reported IC50.
# tested-on: human DGKζ (Homo sapiens (Human), UniProt Q13574)
# Sequence (Q13574 whole entry, looked up): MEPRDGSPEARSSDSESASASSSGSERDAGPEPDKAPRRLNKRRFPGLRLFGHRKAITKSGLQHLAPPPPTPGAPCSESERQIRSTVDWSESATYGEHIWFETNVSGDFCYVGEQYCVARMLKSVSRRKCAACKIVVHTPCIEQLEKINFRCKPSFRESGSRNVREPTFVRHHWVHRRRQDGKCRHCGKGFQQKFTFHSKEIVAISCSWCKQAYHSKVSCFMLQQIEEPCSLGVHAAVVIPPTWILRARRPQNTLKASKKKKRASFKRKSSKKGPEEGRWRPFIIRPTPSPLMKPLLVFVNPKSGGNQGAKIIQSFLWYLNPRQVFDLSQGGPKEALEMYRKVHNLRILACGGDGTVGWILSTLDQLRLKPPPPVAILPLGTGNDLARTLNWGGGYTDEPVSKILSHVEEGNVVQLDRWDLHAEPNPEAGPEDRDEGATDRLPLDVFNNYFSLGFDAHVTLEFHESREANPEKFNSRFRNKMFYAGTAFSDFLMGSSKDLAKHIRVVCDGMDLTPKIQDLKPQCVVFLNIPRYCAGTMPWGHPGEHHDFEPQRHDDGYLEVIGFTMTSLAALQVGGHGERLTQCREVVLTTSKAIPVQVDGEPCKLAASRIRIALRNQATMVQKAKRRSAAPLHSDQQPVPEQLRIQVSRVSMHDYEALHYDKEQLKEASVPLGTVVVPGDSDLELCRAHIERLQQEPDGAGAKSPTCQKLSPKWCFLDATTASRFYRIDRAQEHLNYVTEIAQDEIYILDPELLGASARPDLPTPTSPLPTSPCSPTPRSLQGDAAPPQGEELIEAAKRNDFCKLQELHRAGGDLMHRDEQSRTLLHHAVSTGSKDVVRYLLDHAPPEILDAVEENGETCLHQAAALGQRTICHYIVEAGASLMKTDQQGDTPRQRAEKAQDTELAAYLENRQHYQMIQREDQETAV
# assay-remarks: biochemical
# Assay type: biochemical
# condition-label: Table A; liposome (LIPGLO) assay; read-out: DGKζ
Numeric answer plus unit only.

Field request: IC50 | item: CC(C)Oc1ccc(O[C@H]2CCN(c3cc(=O)n(C)c4ccc(C#N)nc34)C[C@@H]2O)nc1 (single isomer, unassigned) [Example 267]
10 µM

Field request: IC50 | item: CO[C@H]1CN(c2cc(=O)n(C)c3ccc(C#N)nc23)CC[C@@H]1Oc1ccc(OC(C)C)cn1 (single isomer, unassigned) [Example 270]
12 µM

Field request: IC50 | item: CC[C@@H]1CN(c2cc(=O)n(C)c3ccc(C#N)nc23)CC[C@H]1Oc1cccc(C(C)(C)C)c1 (single isomer, unassigned) [Example 198]
1.3 µM

----------
# Test system: Human venous whole blood (IFN-γ)
# assay-remarks: Human whole blood IFN-γ assay
# Assay type: cell-based
# condition-label: Homo sapiens, 24 h, human whole blood, anti-CD3 plus anti-CD28, 24 hours; read-out: INFg Whole Blood Normalized Agonist EC50
Task for the reader: assign each of the following molecules its reported log10 EC50.
The base-10 logarithm of EC50, taken with EC50 in µM, is what appears here.

Field request: log10 EC50 | item: Cn1c(=O)c(C#N)c(N2CCC(Oc3ccccc3Cl)CC2)c2nc(Cl)ccc21 [Example 18]
1.00

Field request: log10 EC50 | item: Cn1c(=O)cc(N2CCC(Oc3ncnc4ccccc34)CC2)c2nc(C#N)ccc21 [Example 71]
1.30

Field request: log10 EC50 | item: CC[C@@H]1CN(c2cc(=O)n(C)c3ccc(C#N)nc23)CC[C@H]1Oc1ccc(OC(C)C)cc1 [Example 161]
0.38

Field request: log10 EC50 | item: CCC(C)(C)c1ccc(O[C@@H]2CCN(c3cc(=O)n(C)c4ccc(C#N)nc34)C[C@H]2C)cc1 [Example 82]
-0.19

Field request: log10 EC50 | item: Cn1c(=O)cc(N2CCC(Oc3ccc(OC(F)(F)F)cc3)CC2)c2nc(C#N)ccc21 [Example 52]
0.43

Field request: log10 EC50 | item: COc1cccc(OC2CCN(c3c(C#N)c(=O)n(C)c4ccc(Cl)nc34)CC2)c1 [Example 10]
0.70

Field request: log10 EC50 | item: Cn1c(=O)cc(N2CCC(Oc3ccc(Cc4ccccc4)cc3)CC2)c2nc(C#N)ccc21 [Example 55]
0.57

Field request: log10 EC50 | item: C[C@@H]1CN(c2cc(=O)n(C)c3ccc(C#N)nc23)CC[C@H]1Oc1ccc(C(C)(C)C)cc1 (single isomer, unassigned) [Example 90]
0.75

Field request: log10 EC50 | item: CCCCc1ccc(OC2CCN(c3cc(=O)n(C)c4ccc(C#N)nc34)CC2)cc1 [Example 56]
0.58

Field request: log10 EC50 | item: CC[C@@H]1CN(c2cc(=O)n(C)c3ccc(C#N)nc23)CC[C@H]1Oc1ccc(C(C)(C)CC)cc1 (single isomer, unassigned) [Example 150]
0.15

Field request: log10 EC50 | item: CCC(C)(C)c1ccc(OC2CCN(c3cc(=O)n(C)c4ccc(C#N)nc34)CC2)cc1 [Example 54]
0.36

Field request: log10 EC50 | item: Cn1c(=O)cc(N2CCC(Oc3nncc4ccccc34)CC2)c2nc(C#N)ccc21 [Example 75]
1.30

Field request: log10 EC50 | item: Cn1c(=O)cc(N2CCC(Oc3ccc(C(C)(C)C)cc3)CC2)c2cc(C#N)ccc21 [Example 53]
0.26

Field request: log10 EC50 | item: C[C@@H]1CN(c2cc(=O)n(C)c3ccc(C#N)nc23)CC[C@H]1Oc1ccc(F)cc1 [Example 128]
1.30

Field request: log10 EC50 | item: CC(C)c1ccc(O[C@@H]2CCN(c3cc(=O)n(C)c4ccc(C#N)nc34)C[C@H]2C)cc1 [Example 94]
0.04

Field request: log10 EC50 | item: Cn1c(=O)c(C#N)c(N2CCC(Oc3ccc(Cl)cc3)CC2)c2nc(Cl)ccc21 [Example 16]
1.00

Field request: log10 EC50 | item: Cn1c(=O)cc(N2CCC(Oc3ccc(C(C)(C)C)nn3)CC2)c2nc(C#N)ccc21 [Example 68]
0.98

Field request: log10 EC50 | item: C[C@@H]1CN(c2cc(=O)n(C)c3ccc(C#N)nc23)CC[C@H]1Oc1ccc(OC(F)(F)F)cc1 (racemic) [Example 79]
0.34

Field request: log10 EC50 | item: C[C@@H]1CN(c2cc(=O)n(C)c3ccc(C#N)nc23)CC[C@H]1Oc1ccc(F)cc1C(F)(F)F (single isomer, unassigned) [Example 117]
0.66
